Experimental target: T1, IGSF11 (VSIG3)
T1 construct: coated protein in the ELISA; also called IGSF11-Fc (R&D Systems)
T1 chain: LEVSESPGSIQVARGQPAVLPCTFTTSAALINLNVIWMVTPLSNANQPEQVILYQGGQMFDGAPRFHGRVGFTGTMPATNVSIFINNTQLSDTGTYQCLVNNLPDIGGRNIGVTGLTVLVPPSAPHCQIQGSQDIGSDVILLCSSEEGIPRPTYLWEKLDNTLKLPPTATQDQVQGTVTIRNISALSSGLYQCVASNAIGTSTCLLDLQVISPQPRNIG
Protocol summary: ELISA on coated IGSF11-Fc, 150 ng IgG1; None 0.090
Recorded ELISA Absorbance (405 nm-570 nm) values for a group of binders are listed next.
Quantity: ELISA Absorbance (405 nm-570 nm)

Binder: HW-81 chimeric rabbit-human IgG1 LA/LA/PG (antibody, V domains shown, Fc-silenced (L234A/L235A/P329G) IgG1, lambda; Alexa Fluor 647-labeled in single-step flow cytometry; Cluster C-45) VH: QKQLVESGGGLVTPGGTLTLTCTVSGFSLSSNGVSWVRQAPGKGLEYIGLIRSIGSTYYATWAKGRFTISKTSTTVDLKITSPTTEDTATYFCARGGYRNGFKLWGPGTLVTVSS VL: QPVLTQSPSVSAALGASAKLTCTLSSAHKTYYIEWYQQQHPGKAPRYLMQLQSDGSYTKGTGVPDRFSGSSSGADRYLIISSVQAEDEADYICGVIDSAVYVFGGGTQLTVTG
Quantity: ELISA Absorbance (405 nm-570 nm)
Assay result: 0.065

Binder: HW-101 chimeric rabbit-human IgG1 LA/LA/PG (antibody, V domains shown, Fc-silenced (L234A/L235A/P329G) IgG1, lambda; Alexa Fluor 647-labeled in single-step flow cytometry; Cluster C-97) VH: QEQLVESGGRLVTPGTPLTLTCKASGFSLGKYDMSWVRQAPGKGLEWIGTIYAGSGSTWYASWAKGRFTISKTSTTVDLKMTSLTTEDTATYFCARDFLGVNSIWGPGTLVTISS VL: SFVLTQPASVQVNLGQTVSLTCTADTLSRSYASWYQQKPDQAPVLLIHRDTSRPSGVPDRFSGSNSGNTATLTISGAQAGDEADYYCATSDGSGSNFHFVFGGGTQLTVTG
Quantity: ELISA Absorbance (405 nm-570 nm)
Assay result: 0.066

Binder: HW-25 chimeric rabbit-human IgG1 LA/LA/PG (antibody, V domains shown, Fc-silenced (L234A/L235A/P329G) IgG1, lambda; Alexa Fluor 647-labeled in single-step flow cytometry; Cluster C-1) VH: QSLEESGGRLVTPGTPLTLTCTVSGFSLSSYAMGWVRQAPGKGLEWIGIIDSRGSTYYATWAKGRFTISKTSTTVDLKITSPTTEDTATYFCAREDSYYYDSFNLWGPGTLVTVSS VL: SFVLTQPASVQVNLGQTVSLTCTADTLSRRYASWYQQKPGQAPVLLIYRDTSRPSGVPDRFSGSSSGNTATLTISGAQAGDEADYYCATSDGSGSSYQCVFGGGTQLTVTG
Quantity: ELISA Absorbance (405 nm-570 nm)
Assay result: 0.07
